# test description: inhibitors of TNFa-induced NFkB p65 translocation, primary screen, imaging, HUVEC, MLSMR starter and 10KST1 sets (AID 438);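 also: compound added about 3h40 before a 20 min TNFalpha stimulation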
# condition details: HUVEC TNFa-induced p65 nuclear translocation; measured here: nuclei count (cytotoxicity indicator), at 2.08 µM
measured endpoint: cell count

[[record]]
compound = "CCCn1c(-c2ccc(F)cc2)cnc1SCC(=O)O"
value_reported = 431

[[record]]
compound = "COc1ccccc1NC(=O)c1c(C)cc(=O)oc1C"
value_reported = 601

[[record]]
compound = "COc1ccc(Cn2c(-c3ccco3)nc3oc4ccccc4c(=O)c3c2=O)cc1"
value_reported = 492


Find the recorded cell count belonging to O=C1CC(Cc2ccccc2)C(=O)N1CCCn1ccnc1 (stereo unspecified) and report it. 429

Find the recorded cell count belonging to O=C(CSc1n[nH]c(-c2ccco2)n1)Nc1sc2c(c1C(=O)Nc1ccccc1)CCCC2 and report it. 298

Find the recorded cell count belonging to CC(C)N(C(=O)CSc1nnc(NC(=O)C2CCC2)s1)C(C)C and report it. 599

---

# test target: Voltage-gated potassium channel subunit beta-2 (Rattus norvegicus)
# test description: KvBeta enzyme negative modulators, primary screen, biochemical, NADPH fluorescence (AID 622);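 also: slope of raw intensity against log time taken from 70 to 1610 s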
# condition details: recombinant KvBeta, 4-cyanobenzaldehyde reduction, at 10 µM, stronger effect = higher value
The source made the active and inactive calls.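 The calls were made as follows: active = fluorescence slope higher than the sample average by over 3 SD (cut at about -0.22 in these data, passing the limit was not always enough); inactive = the rest.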
Each entry below carries its recorded fluorescence slope.

Find the recorded fluorescence slope belonging to Oc1c(C(c2ccccc2)N2CCc3ccccc3C2)sc2ncnn12 (stereo unspecified) and report it. -0.618 (inactive)

Find the recorded fluorescence slope belonging to COC(=O)c1cc(OC)c(OC)cc1NC(=O)c1ccc(Br)o1 and report it. -0.312 (inactive)

Find the recorded fluorescence slope belonging to C=CCNc1nc(N2CCOCC2)c(C#N)c2c1CN(C)CC2 and report it. -0.417 (inactive)

Find the recorded fluorescence slope belonging to CC(O)(C#CCN1CCOCC1)c1ccccc1 (stereo unspecified) and report it. -0.455 (inactive)

Find the recorded fluorescence slope belonging to O=C(CCN1C(=O)C2C3C=CC(C3)C2C1=O)N1CCN(c2ccccc2Cl)CC1 (stereo unspecified) and report it. -0.399 (inactive)

Find the recorded fluorescence slope belonging to CCOC(=O)C1=C(C)N(C)C(=O)NC1c1ccccc1OC (stereo unspecified) and report it. -0.4 (inactive)

---

# test description: inhibitors of Sendai virus-induced IRF3 signaling, primary screen, TLR/RLR signaling modifier project, cell-based, Sendai virus stimulus, luciferase, 10K MLSCN set (AID 602276);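 also: firefly luciferase from ISG56 promoter only with Renilla not read in this screen; 0% = Sendai virus plus DMSO and 100% = medium plus DMSO without virus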
# condition details: HEK293 RL24 IRF3 luciferase reporter, at 10 µM, stronger effect = higher value
Activity calls are given as the source filed them.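 The calls were made as follows: active = inhibition at or above 50% at 10 µM; inactive = inhibition below 50%.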
measured endpoint: inhibition

[[record]]
compound = "CCOC(=O)c1sc(NC(=O)c2noc3c2CCCC3)c(C(=O)OCC)c1C"
measured_endpoint = "inhibition"
value_reported = "2.17% (inactive)"


Find the recorded inhibition belonging to Cn1cc(C2NC(=O)c3c(sc4c3CCCC4)N2)c2ccccc21 (stereo unspecified) and report it. 2.79% (inactive)

Find the recorded inhibition belonging to Nc1cc(CN2C(=O)c3ccccc3C2=O)cc(Cl)c1O and report it. 12.8% (inactive)

Find the recorded inhibition belonging to Cc1nc(NC(=O)c2ccccc2)sc1-c1csc(NCc2ccco2)n1 and report it. 5.26% (inactive)

Find the recorded inhibition belonging to Cc1cc(NC(=O)CCC(=O)N(c2cccnc2)C(C(=O)NC2CCCC2)c2ccccc2F)no1 (stereo unspecified) and report it. -5.41% (inactive)

Find the recorded inhibition belonging to CCn1c(SCC(=O)Nc2ccc3c(c2)OCO3)nnc1-c1ccccc1O and report it. 11.9% (inactive)

Find the recorded inhibition belonging to c1ccc(-c2nnc(-c3ccco3)n2-c2ccccc2)cc1 and report it. 15.2% (inactive)

Find the recorded inhibition belonging to CCOC(=O)c1cc(CC)sc1NC(=O)CCC(=O)O and report it. 22% (inactive)

Find the recorded inhibition belonging to COc1ccc(N2CCN(C(=O)c3c(-c4ccccc4)noc3C)CC2)cc1 and report it. -19.4% (inactive)

Find the recorded inhibition belonging to Cn1c(=O)c2[nH]c(NCC3CCCO3)nc2n(-c2ccccc2)c1=O (stereo unspecified) and report it. 14% (inactive)

Find the recorded inhibition belonging to Cc1nn(C(=O)c2cc3sccc3[nH]2)c(C)c1C and report it. -8.25% (inactive)
